These data points were gathered from patent US20080181886A1.

Listed binders paired with reported F (APRIL)
Biological target: T1, Murine APRIL (mouse, UniProt Q9D777 105-241, limits assumed)
T1 sequence (looked up): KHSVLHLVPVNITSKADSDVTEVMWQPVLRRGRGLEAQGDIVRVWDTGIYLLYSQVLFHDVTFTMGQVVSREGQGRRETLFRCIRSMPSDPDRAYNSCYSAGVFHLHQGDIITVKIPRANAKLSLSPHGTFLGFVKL
Assay: shotgun scan, phage display
Just the number, please, no unit after it.

Observe how each entry below is paired with its result.
SLSCRKEQGKFYDHLLRDCISCASVCGQHPKQCAYFCENKLR (receptor, phage library variant, format as m9) [TACI_d2 I92V] ... 3.3
SLSCRKEQGKFYDHLLRDCISCASICGQHPEQCAYFCENKLR (receptor, phage library variant, format as m9) [TACI_d2 K98E] ... 6.9

Prompt: Endpoint output: F (APRIL) of SLSCRKEQGKFYDHLLRDCISCASICGQAPKQCAYFCENKLR (receptor, phage library variant, format as m9) [TACI_d2 H96A] . Value?
Completion: 12
